Reported pKi values for the following molecules.
- measurement-target: Sodium-dependent serotonin transporter (Rattus norvegicus, UniProt P31652)
- Sequence (P31652 whole entry): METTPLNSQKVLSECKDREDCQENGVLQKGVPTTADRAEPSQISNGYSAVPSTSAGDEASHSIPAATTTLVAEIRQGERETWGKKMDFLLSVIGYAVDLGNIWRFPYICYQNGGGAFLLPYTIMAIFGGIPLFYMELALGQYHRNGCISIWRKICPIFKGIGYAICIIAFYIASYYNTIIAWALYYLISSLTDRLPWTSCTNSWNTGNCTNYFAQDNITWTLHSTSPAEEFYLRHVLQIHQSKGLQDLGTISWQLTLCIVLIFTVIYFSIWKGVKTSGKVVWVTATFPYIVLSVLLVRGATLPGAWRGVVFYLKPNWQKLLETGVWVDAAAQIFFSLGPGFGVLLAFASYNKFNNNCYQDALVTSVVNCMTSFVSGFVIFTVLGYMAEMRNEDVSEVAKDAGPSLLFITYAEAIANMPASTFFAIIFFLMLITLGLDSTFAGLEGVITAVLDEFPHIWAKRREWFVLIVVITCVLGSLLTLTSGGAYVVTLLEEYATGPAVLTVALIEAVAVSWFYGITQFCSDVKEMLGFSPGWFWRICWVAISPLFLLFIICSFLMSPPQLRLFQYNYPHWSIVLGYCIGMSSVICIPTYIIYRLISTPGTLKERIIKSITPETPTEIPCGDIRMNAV
pKi: −log10 of the molar value.
metric-name: pKi

>>> measured_number("CC(C)c1noc([C@H]2CN(C)CC[C@@H]2c2ccc(Cl)cc2)n1")
5.53
>>> measured_number("CC(C)c1noc([C@@H]2CN(C)CC[C@H]2c2ccc(Cl)cc2)n1")
5.91

====

Read-out record for Sodium-dependent serotonin transporter (Rattus norvegicus, UniProt P31652): Ki
metric-name: Ki

>>> result("CN1CC[C@@H](c2ccc(Cl)cc2)[C@H](c2nc(-c3ccc(Cl)cc3)no2)C1")
"> 3 µM"
>>> result("Cc1noc([C@H]2CN(C)CC[C@@H]2c2ccc(Cl)cc2)n1")
"5.96 µM"
>>> result("CN1CC[C@H](c2ccc(Cl)cc2)[C@@H](c2nc(-c3ccc(Cl)cc3)no2)C1")
"> 3 µM"
